# Species: Homo sapiens
# protocol.details: Tested for its rate of glucuronidation in 0.5-2.5 mg/mL of human microsomal protein
# Assay type: functional
Flag rule - Glucuronidation rate (nM min-1 mg-1) less than 0.06 flags Y; the remaining entries get N.

These recorded examples may help you get a feel for the data.
CC(c1cc2ncccc2s1)N(O)C(N)=O (stereo in doubt; (-)-4a): Y
CC(c1cc2ccccc2s1)N(O)C(N)=O (single isomer, unassigned; (-)): N
CC(c1cc2ncccc2s1)N(O)C(N)=O (single isomer, unassigned; (+)): Y
CC(c1cc2ccccc2s1)N(O)C(N)=O (stereo in doubt; (+)-1b): Y
CC(c1cc2cccnc2s1)N(O)C(N)=O (stereo in doubt; (+)-2b): Y

# input Determine whether this compound shows Glucuronidation rate (nM min-1 mg-1) lower than 0.06 (ties excluded): CC(c1cc2ccncc2s1)N(O)C(N)=O (stereo in doubt; (-)-3a)
# output N

# input Determine whether this compound shows Glucuronidation rate (nM min-1 mg-1) lower than 0.06 (ties excluded): CC(c1cc2cccnc2s1)N(O)C(N)=O (single isomer, unassigned; (-))
# output Y

# input Determine whether this compound shows Glucuronidation rate (nM min-1 mg-1) lower than 0.06 (ties excluded): CC(c1cc2ccncc2s1)N(O)C(N)=O (single isomer, unassigned; (+))
# output Y
